- experiment_summary: in vitro
- condition_set: human, MRC9 cells
# IC50 at 72 h per record follows

Some entries whose results are on file:
{"compound_string": "CC(C)N(Cc1ccc(C(=O)NO)cn1)S(=O)(=O)c1cc(F)c(F)c(F)c1F", "result": "> 50 µM"}
{"compound_string": "CC(C)N(Cc1ccc(C(=O)NO)cc1)C(=O)c1c(F)c(F)c(F)c(F)c1F", "result": "> 50 µM"}

[ask] Recall and state the measured IC50 at 72 h for CC(C)N(Cc1ccc(C(=O)NO)cc1)S(=O)(=O)c1c(F)c(F)c(F)c(F)c1F .
[reply] > 20 µM

[ask] Recall and state the measured IC50 at 72 h for COc1cc(C(=O)NO)ccc1CN(C(C)C)S(=O)(=O)c1cc(F)c(F)c(F)c1F .
[reply] > 50 µM

[ask] Recall and state the measured IC50 at 72 h for CC(C)N(Cc1ccc(C(=O)NO)cc1)S(=O)(=O)c1cc(F)c(F)c(F)c1F .
[reply] > 50 µM

Recorded values, source ChEMBL document CHEMBL5154721.
